Would you mind telling me the reported viability, T/C of each entry?
# Tested on: 648629-189-R-J1-PDC spheroids with HUVEC/MSC, viability
# assay.remarks: Anticancer human tumor 648629-189-R-J1-PDC patient-derived bladder carcinoma cell line growth inhibition [PI3K]
# measurement.context: second compound 0.0316 µM; first compound 0.01 µM; active compounds read low

Any idea what viability, T/C was measured for CC(C)n1nc(-c2ccc3oc(N)nc3c2)c2c(N)ncnc21 + Cc1nc(NC(=O)N2CCCC2C(N)=O)sc1-c1ccnc(C(C)(C)C(F)(F)F)c1 ?
97.5%

Any idea what viability, T/C was measured for CC(C)n1nc(-c2ccc3oc(N)nc3c2)c2c(N)ncnc21 + CC(Nc1ncnc2nc[nH]c12)c1cc2cccc(Cl)c2c(=O)n1-c1ccccc1 ?
85.4%

Any idea what viability, T/C was measured for CCN1CCN(Cc2ccc(Nc3ncc(F)c(-c4cc(F)c5nc(C)n(C(C)C)c5c4)n3)nc2)CC1 + COc1c(OCCCN2CCOCC2)ccc2c3n(c(=NC(=O)c4cnc(N)nc4)nc12)CCN3 ?
79%

###

Would you mind telling me the reported viability, T/C of each entry?
# System: 648629-189-R-J1-PDC spheroids with HUVEC/MSC, viability
# assay.remarks: Anticancer human tumor 648629-189-R-J1-PDC cell line growth inhibition [PI3K];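 further: spheroids exposed to agents for seven days before reading; percent of vehicle control luminescence where 100% = DMSO treated spheroids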
# measurement.context: second compound 0.0316 µM; first compound 0.1 µM; active compounds read low
State the answer as a number, implicitly in %.

Any idea what viability, T/C was measured for C[C@@H](NC(=O)c1ncnc(N)c1Cl)c1ncc(C(=O)Nc2cc(C(F)(F)F)c(Cl)cn2)s1 + Cc1nc(NC(=O)N2CCCC2C(N)=O)sc1-c1ccnc(C(C)(C)C(F)(F)F)c1 ?
93.8

Any idea what viability, T/C was measured for CC1(C)CCC(Nc2ncc(C(F)(F)F)c(-c3c[nH]c4c(P(C)(C)=O)c(C#N)ccc34)n2)CN1 (stereo unspecified) + CC(Nc1ncnc2nc[nH]c12)c1cc2cccc(Cl)c2c(=O)n1-c1ccccc1 ?
29

Any idea what viability, T/C was measured for CC(=O)c1c(C)c2cnc(Nc3ccc(N4CCNCC4)cn3)nc2n(C2CCCC2)c1=O + COc1c(OCCCN2CCOCC2)ccc2c3n(c(=NC(=O)c4cnc(N)nc4)nc12)CCN3 ?
94.2

Any idea what viability, T/C was measured for Cn1ncc(Cl)c1-c1cc(C(=O)NC(CN)Cc2cccc(F)c2)sc1Cl (stereo unspecified) + CC(Nc1ccc2c(c1)OCCn1cc(N3C(=O)OCC3C(F)F)nc1-2)C(N)=O ?
80.4

Any idea what viability, T/C was measured for CC(C)n1nc(-c2ccc3oc(N)nc3c2)c2c(N)ncnc21 + CC(Nc1ncnc2nc[nH]c12)c1cc2cccc(Cl)c2c(=O)n1-c1ccccc1 ?
36.5

Any idea what viability, T/C was measured for CCN1CCN(Cc2ccc(Nc3ncc(F)c(-c4cc(F)c5nc(C)n(C(C)C)c5c4)n3)nc2)CC1 + COc1c(OCCCN2CCOCC2)ccc2c3n(c(=NC(=O)c4cnc(N)nc4)nc12)CCN3 ?
88.5

###

# System: 648629-189-R-J1-PDC spheroids with HUVEC/MSC, viability
# assay.remarks: Anticancer human tumor 648629-189-R-J1-PDC cell line growth inhibition [PI3K];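 further: spheroids exposed to agents for seven days before reading; percent of vehicle control luminescence where 100% = DMSO treated spheroids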
# measurement.context: second compound 0.316 µM; first compound 10 µM; active compounds read low
quantity.name: viability, T/C (%)
State the answer as a number, implicitly in %.

Any idea what viability, T/C was measured for CC(Cn1ccc(-c2ccc(C#N)c(Cl)c2)n1)NC(=O)c1cc(C(C)O)[nH]n1 (stereo not given) + Cc1nc(NC(=O)N2CCCC2C(N)=O)sc1-c1ccnc(C(C)(C)C(F)(F)F)c1 ?
68.2

Any idea what viability, T/C was measured for CC1(C)CCC(Nc2ncc(C(F)(F)F)c(-c3c[nH]c4c(P(C)(C)=O)c(C#N)ccc34)n2)CN1 (stereo not given) + CC(Nc1ncnc2nc[nH]c12)c1cc2cccc(Cl)c2c(=O)n1-c1ccccc1 ?
11.5

Any idea what viability, T/C was measured for C#Cc1c(F)ccc2cc(O)cc(-c3ncc4c(N5CC6CCC(C5)N6)nc(OCC56CCCN5CC(F)C6)nc4c3F)c12 (stereo not given) + Cc1nc(NC(=O)N2CCCC2C(N)=O)sc1-c1ccnc(C(C)(C)C(F)(F)F)c1 ?
79.5

Any idea what viability, T/C was measured for C[C@@H](NC(=O)c1ncnc(N)c1Cl)c1ncc(C(=O)Nc2cc(C(F)(F)F)c(Cl)cn2)s1 + CC(Nc1ncnc2nc[nH]c12)c1cc2cccc(Cl)c2c(=O)n1-c1ccccc1 ?
115

Any idea what viability, T/C was measured for C=CC(=O)N1CCN(c2nc(=O)n(-c3c(C)ccnc3C(C)C)c3nc(-c4c(O)cccc4F)c(F)cc23)C(C)C1 (stereo not given) + CC(Nc1ccc2c(c1)OCCn1cc(N3C(=O)OCC3C(F)F)nc1-2)C(N)=O ?
78.1
